Test system: CD2F1 mice, L1210 leukemia ip, survival T/C
assay.notes: NCI In Vivo Anticancer Drug Screen. Data for tumor model L1210 Leukemia (intraperitoneal) in CD2F1 (CDF1) mice
recorded.conditions: endpoint: mean survival time; dose: 100.0 mg/kg/injection; schedule: Q01DX009 (ip); vehicle: other; higher = longer survival
Inconclusive results and toxic doses are left out.
value.type: T/C

Reported T/C for Cc1ccc(N)nc1[N+](=O)[O-] : what is it?
100 % of control

Continuing:
Reported T/C for CN(C(=O)Nc1ccccc1)c1ccccc1 : what is it?
97 % of control

Reported T/C for CN(C)N=Nc1c(F)c(F)c(C(N)=O)c(F)c1F : what is it?
105 % of control

Reported T/C for CCOC(=O)CC(=O)COC(=O)CC(=O)OCC : what is it?
97 % of control

Reported T/C for COc1ccc2nc3cc(Cl)ccc3c(Nc3ccc(NS(C)(=O)=O)cc3)c2n1 : what is it?
94 % of control

Reported T/C for CC(C)(C)OC(=O)NC(C(=O)O)C1=CCC=CC1 (centres undefined) : what is it?
91 % of control

Reported T/C for CCOC(=O)C1=C(C)NC(C)=C(C(=O)OCC)C1Cc1ccccc1 : what is it?
106 % of control

Reported T/C for CC(=O)OCC1OC2OC(C)(OC(C)(C)C)OC2C(OC(C)=O)C1OC(C)=O (centres undefined) : what is it?
103 % of control

Reported T/C for O=[N+]([O-])c1ccc(F)c(Cl)c1 : what is it?
96 % of control

###

Tested on: CD2F1 mice, L1210 leukemia ip, survival T/C
assay.notes: NCI In Vivo Anticancer Drug Screen. Data for tumor model L1210 Leukemia (intraperitoneal) in CD2F1 (CDF1) mice
recorded.conditions: endpoint: mean survival time; dose: 25.0 mg/kg/injection; schedule: Q04DX002 (ip); vehicle: saline with Tween-80; higher = longer survival
Inconclusive results and toxic doses are left out.
// T/C lookup, one value per entry

Reported T/C for CCOC(=O)/C(O)=C\c1cc(OC)nnc1Cl : what is it?
101 % of control

Reported T/C for CC(=O)Oc1ccc2ccccc2c1-c1c(OC(C)=O)ccc2ccccc12 : what is it?
101 % of control

Reported T/C for CC1=C(/C=C/C(C)(O)CC2=NC(C)(C)CO2)C(C)(C)CCC1 (stereo unspecified) : what is it?
101 % of control

Reported T/C for N#CSCCN1C(=O)C2C3CCC(O3)C2C1=O (stereo unspecified) : what is it?
103 % of control

Reported T/C for N#[O+].O=[N+]([O-])O.[Co].[NH2-].[NH2-].[NH2-].[NH2-].[NH2-] : what is it?
98 % of control

Continuing:
Reported T/C for Cc1ccc(C(C)C)c(OCC[N+]2(CCOc3cc(C)ccc3C(C)C)CC=CC2)c1 : what is it?
100 % of control

Reported T/C for Clc1ccccc1P(c1ccccc1)c1ccccc1 : what is it?
100 % of control

Reported T/C for O=C(O)CCC(NC(=O)COc1ccc(Cl)cc1Cl)C(=O)O (stereo unspecified) : what is it?
100 % of control

Reported T/C for CCCCCCC(C)NCC(O)COc1cccc(C)c1 (stereo unspecified) : what is it?
96 % of control

Reported T/C for CC/C=C(\C)CC(C)O (stereo unspecified) : what is it?
93 % of control

Reported T/C for O=C1C2=C(C(=O)C3=C1C1CCC3C1)C1CCC2C1 : what is it?
105 % of control

###

// T/C lookup, one value per entry
System: CD2F1 mice, L1210 leukemia ip, survival T/C
assay.notes: NCI In Vivo Anticancer Drug Screen. Data for tumor model L1210 Leukemia (intraperitoneal) in CD2F1 (CDF1) mice
recorded.conditions: endpoint: mean survival time; dose: 200.0 mg/kg/injection; schedule: Q01DX009 (ip); vehicle: saline sonified; higher = longer survival
Toxic doses and inconclusive results are not listed.

Reported T/C for COc1cc2c(cc1OC)C(CCN1C(=O)CCC1=O)=NCC2 : what is it?
100 % of control

Reported T/C for Cc1ccn(C)c(=N)c1 : what is it?
98 % of control

Reported T/C for Nc1nc2n[nH]nc2c(=O)[nH]1 : what is it?
106 % of control

Proceeding to the next molecule to report its T/C.
Reported T/C for CC(C)C(C(O)c1ccccc1)[N+](=O)[O-] (centres undefined) : what is it?
102 % of control

###

Test system: CD2F1 mice, L1210 leukemia ip, survival T/C
assay.notes: NCI In Vivo Anticancer Drug Screen. Data for tumor model L1210 Leukemia (intraperitoneal) in CD2F1 (CDF1) mice
recorded.conditions: endpoint: mean survival time; dose: 200.0 mg/kg/injection; schedule: Q01DX009 (ip); vehicle: saline with Tween-80; higher = longer survival
Procedure: The antitumor activity of compounds was measured in mice bearing transplantable tumors. Survival or tumor size were measured and the results are expressed as the measurement made in the treated group (T) divided by the measurement made in the vehicle treated control group (C). The tumor model used in this assay is L1210 Leukemia (intraperitoneal) in CD2F1 (CDF1) mice
Toxic doses and inconclusive results are not listed.
value.type: T/C

Example cases with answers are listed next.
Reported T/C for Nc1nc2c(nnn2C2CC(O)C(CO)C2)c(=O)[nH]1 (configuration not stated) : what is it?
104 % of control

Reported T/C for CC(C)(O)C#Cc1ccccc1 : what is it?
98 % of control

Reported T/C for CCOC(=O)C(=CN1CCCCC1)C(=O)OCC : what is it?
94 % of control

Continuing:
Reported T/C for CCCCCCCC(=O)Nc1cc(C)ccc1C : what is it?
94 % of control

Reported T/C for Cc1cnccc1N=Nc1ccc(N(C)C)cc1 : what is it?
102 % of control

Reported T/C for O=C(O)CNC(=O)CCNC(=O)OCc1ccccc1 : what is it?
93 % of control

Reported T/C for Cc1cc(NC(=O)Oc2ccc([N+](=O)[O-])cc2)ccc1S(=O)(=O)F : what is it?
91 % of control

Reported T/C for O=C1c2c(O)ccc(O)c2C(=O)c2c(NCCO)ccc(NCCO)c21 : what is it?
110 % of control

Reported T/C for O=C(O)/C=C/C(=O)Nc1ccc(C(=O)O)cc1 : what is it?
96 % of control

Reported T/C for COc1cc(-c2nc(-c3ccc(N=Cc4ccc(N(CCCOS(C)(=O)=O)CCCOS(C)(=O)=O)cc4)cc3)cs2)ccc1OCc1ccccc1 : what is it?
86 % of control

Reported T/C for C(=N\Nc1ccccc1)/c1ccc2c(c1)OCO2 : what is it?
104 % of control

Reported T/C for O=C(CC(=O)c1ccccc1O)c1ccccc1 : what is it?
88 % of control

###

System: CD2F1 mice, L1210 leukemia ip, survival T/C
assay.notes: NCI In Vivo Anticancer Drug Screen. Data for tumor model L1210 Leukemia (intraperitoneal) in CD2F1 (CDF1) mice
recorded.conditions: endpoint: mean survival time; dose: 50.0 mg/kg/injection; schedule: Q01DX009 (ip); vehicle: saline with Tween-80; higher = longer survival
Inconclusive results and toxic doses are left out.
value.type: T/C

Example cases with answers are listed next.
Form entry - test system: CD2F1 mice, L1210 leukemia ip, survival T/C; read-out: T/C; compound: C=C1N(C)c2ccccc2C1(C)C
94 % of control

Form entry - test system: CD2F1 mice, L1210 leukemia ip, survival T/C; read-out: T/C; compound: N#Cc1ccc(OCc2nc(N)nc(N)c2-c2ccc(Cl)c(Cl)c2)cc1
90 % of control

Form entry - test system: CD2F1 mice, L1210 leukemia ip, survival T/C; read-out: T/C; compound: CCOC(=O)/C=C/C1CCCCC1
96 % of control

Form entry - test system: CD2F1 mice, L1210 leukemia ip, survival T/C; read-out: T/C; compound: O=[N+]([O-])O
86 % of control

Form entry - test system: CD2F1 mice, L1210 leukemia ip, survival T/C; read-out: T/C; compound: Clc1ccc2c(NCCN3CCCCCC3)nc(C(Cl)(Cl)Cl)nc2c1
94 % of control

Form entry - test system: CD2F1 mice, L1210 leukemia ip, survival T/C; read-out: T/C; compound: CCCC/C=C/C(C)O (stereo not given)
100 % of control

Form entry - test system: CD2F1 mice, L1210 leukemia ip, survival T/C; read-out: T/C; compound: CCCOS(=O)(=O)c1ccc(Cl)c([N+](=O)[O-])c1
97 % of control

Form entry - test system: CD2F1 mice, L1210 leukemia ip, survival T/C; read-out: T/C; compound: O=C(CCCN1CCC(O)CC1)c1ccccc1
88 % of control

Continuing:
Form entry - test system: CD2F1 mice, L1210 leukemia ip, survival T/C; read-out: T/C; compound: CCCC(C#N)OC(=O)c1ccccc1 (stereo not given)
104 % of control

Form entry - test system: CD2F1 mice, L1210 leukemia ip, survival T/C; read-out: T/C; compound: N#CCCC(=O)c1nc(N)nc(N)n1
91 % of control

Form entry - test system: CD2F1 mice, L1210 leukemia ip, survival T/C; read-out: T/C; compound: O=[N+]([O-])c1ccc(Cn2cc[n+](Cc3ccc([N+](=O)[O-])cc3)c2)cc1
93 % of control

Form entry - test system: CD2F1 mice, L1210 leukemia ip, survival T/C; read-out: T/C; compound: CC(O)Cc1c(Cc2ccccc2)nc(-c2ccccc2)[nH]c1=O (stereo not given)
91 % of control

Form entry - test system: CD2F1 mice, L1210 leukemia ip, survival T/C; read-out: T/C; compound: COc1cc(/C=C/C=C/C(=O)N2CCCCC2)ccc1O
113 % of control

Form entry - test system: CD2F1 mice, L1210 leukemia ip, survival T/C; read-out: T/C; compound: O=C1CN(CCN2CC(=O)N(C(=O)c3ccccc3)C2=S)C(=S)N1Cc1ccccc1
96 % of control

Form entry - test system: CD2F1 mice, L1210 leukemia ip, survival T/C; read-out: T/C; compound: CC(CCc1ccc(S(=O)(=O)Cl)cc1)c1ccc(S(=O)(=O)Cl)cc1 (stereo not given)
106 % of control
